Record form. Attribute: LC retention time. Fill in for each entry.
run.description: RP, Waters CORTECS T3, 100 × 2.1 mm, 2.7 µm, 0.2 mL/min, estimated dead time 1.1 min; A: water + 0.1% formic acid, pH 3; B: methanol + 0.1% formic acid, pH 3; gradient (min/%B) 0/5 5/5 25/95 25.1/100 35/100 35.1/5 45/5
recorded.conditions: stereoisomer not certain
Numbers only, in min.

Recorded LC retention time, per entry:
| molecule | LC retention time (min) |
| --- | --- |
| N[C@@H](Cc1cnc[nH]1)C(=O)O [L-HISTIDINE] | 2.39 |
| Nc1nc2nccnc2c(=O)[nH]1 [PTERIN] | 8.07 |
| O=c1ccn(C2CC(O)C(COP(=O)(O)O)O2)c(=O)[nH]1 (stereo unspecified) [2'-DEOXYURIDINE 5'-MONOPHOSPHATE] | 2.67 |
| O=C([O-])CCc1ccccc1O [3-(2-HYDROXYPHENYL)PROPANOATE] | 19.6 |
| O=C(O)c1ccc2ccccc2c1[O-] [1-HYDROXY-2-NAPHTHOATE] | 26.8 |

Now for a further molecule.
Q: Determine its reported LC retention time: CC(=O)NCCc1c[nH]c2ccc(O)cc12 [N-ACETYLSEROTONIN]
Result: 15.3
